Reported RGA IC50 values follow for various binders
TEST_TARGET: T1, human IL-11 (human, UniProt P20809 22-199)
T1 sequence: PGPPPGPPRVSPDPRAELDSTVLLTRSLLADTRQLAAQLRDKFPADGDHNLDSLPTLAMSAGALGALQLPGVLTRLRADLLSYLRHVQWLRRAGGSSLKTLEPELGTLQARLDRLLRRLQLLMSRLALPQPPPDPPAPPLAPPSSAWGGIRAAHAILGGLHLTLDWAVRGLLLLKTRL
ASSAY_COMMENT: cell-based or functional assay
Report the value in nM with no unit label.

Entry under review: TPP-26311 (antibody, V domains shown) VH: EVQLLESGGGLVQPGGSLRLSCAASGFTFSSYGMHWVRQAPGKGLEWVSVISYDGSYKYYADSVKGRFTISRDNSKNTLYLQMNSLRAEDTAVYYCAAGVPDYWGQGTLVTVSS VL: QSVLTQPPSASGTPGQRVTISCTGSSSNIGAGYDHHWYQQLPGTAPKLLIYSNNERPSGVPDRFSGSKSGTSASLAISGLRSEDEADYYCAAWDDSLNGPVFGGGTKLTVL . Reported RGA IC50?
1.9

Another binder to look at: TPP-26313 (antibody, V domains shown) VH: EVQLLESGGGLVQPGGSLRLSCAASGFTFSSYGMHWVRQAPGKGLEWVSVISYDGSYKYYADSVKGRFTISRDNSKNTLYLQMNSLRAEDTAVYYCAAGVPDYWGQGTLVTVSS VL: QSVLTQPPSASGTPGQRVTISCTGSSSNIGAYYDVHWYQQLPGTAPKLLIYSNNERPSGVPDRFSGSKSGTSASLAISGLRSEDEADYYCAAWDDSLNGPVFGGGTKLTVL
1.7

Another binder to look at: TPP-26310 (antibody, V domains shown) VH: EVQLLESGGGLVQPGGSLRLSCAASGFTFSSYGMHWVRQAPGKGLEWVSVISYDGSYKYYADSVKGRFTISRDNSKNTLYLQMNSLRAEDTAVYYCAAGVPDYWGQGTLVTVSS VL: QSVLTQPPSASGTPGQRVTISCTGSSSNIGAGYDVHWYQQLPGTAPKLLIYSNNERPWGVPDRFSGSKSGTSASLAISGLRSEDEADYYCAAWDDSLNGPVFGGGTKLTVL
4.5
